target: Cyclin-dependent kinase 2/cyclin A (Homo sapiens) (UniProt P24941+P20248+P78396); experiment: Enzymatic radiometric [Km ATP] KinaseProfiler LeadHunter assay, kinase: CDK2/cyclinA, catalogue number: 14-448KP The assay has been performed by Eurofins Discovery.; type: protein-complex assay; details: ATP concentration 45.0 uM, Test compound concentration 10.0 uM
measurementType: Activity (%)

INSERT INTO results (smilesrecord, testresult) VALUES
  ('CC(C)[C@@H](Nc1ncnc2[nH]ccc12)c1ccc2c(c1)S(=O)(=O)CCC2', 96),
  ('CNCc1cc(-c2cc3c(N[C@@H](c4ccc5c(c4)S(=O)(=O)CCC5)C(C)C)ncnc3[nH]2)co1', 98),
  ('COc1ccc([C@H](Cc2nnn[nH]2)NC(=O)c2ncnc3[nH]ccc23)cc1', 113),
  ('Cn1ncc(-c2cc3c(N[C@@H](c4ccc5c(n4)OCCO5)C(C)(C)C)ncnc3[nH]2)c1C#N', 114),
  ('CC(C)[C@H](Nc1ncnc2[nH]c(-c3cnn(C)c3C#N)cc12)c1ccc2c(n1)OCCO2', 104),
  ('Cc1nn(C)cc1-c1cc2c(N[C@H](c3ccc4c(c3)S(=O)(=O)CCC4)C(C)C)ncnc2[nH]1', 107),
  ('C[C@H](C(=O)O)[C@@H](NC(=O)c1ncnc2[nH]ccc12)c1ccc(Br)cc1', 102),
  ('COc1ccc([C@@H](Cc2nnn[nH]2)NC(=O)c2ncnc3[nH]ccc23)cc1', 97),
  ('CC(C)[C@H](Nc1ncnc2[nH]ccc12)c1ccc2c(c1)S(=O)(=O)CCC2', 102),
  ('CNC(=O)Cn1cc(-c2cc3c(N[C@@H](c4ccc5c(c4)S(=O)(=O)CCC5)C(C)C)ncnc3[nH]2)cn1', 95),
  ('CC(C)[C@@H](Nc1ncnc2[nH]c(C(=O)N[C@@H]3CCN(C)C3)cc12)c1ccc2c(c1)S(=O)(=O)CCC2', 117);

----------
Parameter Activity: see the listing below.
target: Serine/threonine-protein kinase PAK 2 (Homo sapiens); experiment: Enzymatic radiometric [Km ATP] KinaseProfiler LeadHunter assay, kinase: PAK2, catalogue number: 14-481KP The assay has been performed by Eurofins Discovery.; settings: ATP concentration 90.0 uM, Test compound concentration 10.0 uM
measurementType: Activity (%)

INSERT INTO measurements (smilesrecord, testsystem, measurementtype, unitslabel, testresult) VALUES
  ('CC(C)[C@@H](Nc1ncnc2[nH]c(C(=O)N[C@@H]3CCN(C)C3)cc12)c1ccc2c(c1)S(=O)(=O)CCC2', 'Serine/threonine-protein kinase PAK 2 (Homo sapiens)', 'Activity', '%', 99),
  ('CC(C)[C@@H](Nc1ncnc2[nH]ccc12)c1ccc2c(c1)S(=O)(=O)CCC2', 'Serine/threonine-protein kinase PAK 2 (Homo sapiens)', 'Activity', '%', 110),
  ('Cn1ncc(-c2cc3c(N[C@@H](c4ccc5c(n4)OCCO5)C(C)(C)C)ncnc3[nH]2)c1C#N', 'Serine/threonine-protein kinase PAK 2 (Homo sapiens)', 'Activity', '%', 111),
  ('CC(C)[C@H](Nc1ncnc2[nH]ccc12)c1ccc2c(c1)S(=O)(=O)CCC2', 'Serine/threonine-protein kinase PAK 2 (Homo sapiens)', 'Activity', '%', 102),
  ('CNC(=O)Cn1cc(-c2cc3c(N[C@@H](c4ccc5c(c4)S(=O)(=O)CCC5)C(C)C)ncnc3[nH]2)cn1', 'Serine/threonine-protein kinase PAK 2 (Homo sapiens)', 'Activity', '%', 103),
  ('CNCc1cc(-c2cc3c(N[C@@H](c4ccc5c(c4)S(=O)(=O)CCC5)C(C)C)ncnc3[nH]2)co1', 'Serine/threonine-protein kinase PAK 2 (Homo sapiens)', 'Activity', '%', 94),
  ('COc1ccc([C@@H](Cc2nnn[nH]2)NC(=O)c2ncnc3[nH]ccc23)cc1', 'Serine/threonine-protein kinase PAK 2 (Homo sapiens)', 'Activity', '%', 102),
  ('Cc1nn(C)cc1-c1cc2c(N[C@H](c3ccc4c(c3)S(=O)(=O)CCC4)C(C)C)ncnc2[nH]1', 'Serine/threonine-protein kinase PAK 2 (Homo sapiens)', 'Activity', '%', 100);
